System: AM-ST7
Assay: Kirby-Bauer disk diffusion antibiotic susceptibility testing of AM-ST7
Type: cell-based, Akkermansia muciniphila
Conditions: AM-ST7 susceptible
If the reported zone of inhibition equals or exceeds 2 cm, assign class 1. If not, assign class 0.

Example entries and their recorded answers appear below.
- line_notation: "CN[C@H](CC(C)C)C(=O)N[C@H]1C(=O)N[C@@H](CC(N)=O)C(=O)N[C@H]2C(=O)N[C@H]3C(=O)N[C@H](C(=O)N[C@H](C(=O)O)c4cc(O)cc(O)c4-c4cc3ccc4O)[C@H](O)c3ccc(c(Cl)c3)Oc3cc2cc(c3O[C@@H]2O[C@H](CO)[C@@H](O)[C@H](O)[C@H]2O[C@H]2C[C@](C)(N)[C@H](O)[C@H](C)O2)Oc2ccc(cc2Cl)[C@H]1O"
  label: "class 0"
- line_notation: "CC[C@H]1OC(=O)[C@H](C)[C@@H](O[C@H]2C[C@@](C)(OC)[C@@H](O)[C@H](C)O2)[C@H](C)[C@@H](O[C@@H]2O[C@H](C)C[C@H](N(C)C)[C@H]2O)[C@](C)(O)C[C@@H](C)CN(C)[C@H](C)[C@@H](O)[C@]1(C)O"
  label: "class 1"
- line_notation: "C[C@H]1COc2c(N3CCN(C)CC3)c(F)cc3c(=O)c(C(=O)O)cn1c23"
  label: "class 0"

Turning now to a further record.
State whether the measured zone of inhibition reaches 2 cm, counting equality as reaching it, for CN(C)[C@@H]1C(O)=C(C(N)=O)C(=O)[C@@]2(O)C(O)=C3C(=O)c4c(O)cccc4[C@@](C)(O)[C@H]3C[C@@H]12
class 1
